Data credit: paper PMC9959130

method: Biodistribution in BALB/c nude mice bearing A431-CCK2R/A431-mock xenografts
Format: in vivo
testContext: female, BALB/c nude, mouse, heart, iv, 20 pmol, total radioactivity, xenografted BALB/c nude mice, i.v., 20 pmol, gallium-68, 1 h p.i., mean ± SD n = 4; read-out: Uptake in heart
quantityKind: tissue uptake at 1 h (%ID/g)
Give the value in %ID/g but do not write %ID/g after it.

Item CCCC[C@@H](C(=O)N[C@@H](CC(=O)O)C(=O)N(C)[C@@H](Cc1cccc2ccccc12)C(N)=O)N(C)C(=O)[C@H](Cc1c[nH]c2ccccc12)NC(=O)CNC(=O)[C@H](Cc1ccc(O)cc1)NC(=O)[C@H](C)NC(=O)[C@@H](CCC(=O)O)NC(=O)CN1CCN(CC(=O)O)CCN(CC(=O)O)CCN(CC(=O)O)CC1 [[^68Ga]Ga-DOTA-[(N-Me)1Nal^8]MGS5, metal not drawn] : provide tissue uptake at 1 h 0.95

====

method: Binding to serum proteins (incubation in human serum, Sephadex G-50 size exclusion chromatography)
Assay type: in vitro ADME
testContext: human, radiolabeled peptide, 37 °C, 1 h after incubation, Sephadex G-50, n = 2
Where a SMILES comes first, the peptide text is derived from it. [ ]: non-standard residue; d: D form. The star is where a group is joined. DOTA = O=C(O)CN1CCN(CC(=O)O)CCN(CC(=O)*)CCN(CC(=O)O)CC1; NMeNle = CCCC[C@H](NC)C(=O)O
quantityKind: fraction unbound at 1 h, 500 pmol/mL
Give the figure only, with no unit attached.

Report fraction unbound at 1 h, 500 pmol/mL, nothing else, for this molecule: CCCC[C@@H](C(=O)N[C@@H](CC(=O)O)C(=O)N[C@@H](Cc1ccccc1)C(N)=O)N(C)C(=O)[C@H](Cc1c[nH]c2ccccc12)NC(=O)CNC(=O)[C@H](Cc1ccc(O)cc1)NC(=O)[C@H](C)NC(=O)[C@@H](CCC(=O)O)NC(=O)CN1CCN(CC(=O)O)CCN(CC(=O)O)CCN(CC(=O)O)CC1 [[^111In]In-DOTA-[Phe^8]MGS5, metal not drawn] ({DOTA}-[dE]AYGW[NMeNle]DF-NH2) 0.919

====

method: Biodistribution in BALB/c nude mice bearing A431-CCK2R/A431-mock xenografts
Type: in vivo
testContext: female, athymic BALB/c nude, mouse, spleen, iv, 20 pmol, total radioactivity, xenografted BALB/c nude mice, i.v., ~20 pmol, 4 h p.i. (indium-111 or lutetium-177), mean ± SD n = 4; read-out: Uptake in spleen
Where a SMILES comes first, the peptide text is derived from it. [ ]: non-standard residue; d: D form. The star is where a group is joined. DOTA = O=C(O)CN1CCN(CC(=O)O)CCN(CC(=O)*)CCN(CC(=O)O)CC1; 1Nal = N[C@@H](Cc1cccc2ccccc12)C(=O)O; NMeNle = CCCC[C@H](NC)C(=O)O
quantityKind: tissue uptake at 4 h (%ID/g)
Numbers only here, please. The scale is %ID/g.

Example compounds with recorded tissue uptake at 4 h:
| compound | outputUnit | resultValue |
| --- | --- | --- |
| CCCC[C@@H](C(=O)N[C@@H](CC(=O)O)C(=O)N[C@@H](Cc1ccc2ccccc2c1)C(N)=O)N(C)C(=O)[C@H](Cc1c[nH]c2ccccc12)NC(=O)CNC(=O)[C@H](Cc1ccc(O)cc1)NC(=O)[C@H](C)NC(=O)[C@@H](CCC(=O)O)NC(=O)CN1CCN(CC(=O)O)CCN(CC(=O)O)CCN(CC(=O)O)CC1 [[^111In]In-DOTA-[2Nal^8]MGS5, metal not drawn] | %ID/g | 0.18 |
| CCCC[C@@H](C(=O)N[C@@H](CC(=O)O)C(=O)N[C@@H](Cc1cccc2ccccc12)C(=O)NC)N(C)C(=O)[C@H](Cc1c[nH]c2ccccc12)NC(=O)CNC(=O)[C@H](Cc1ccc(O)cc1)NC(=O)[C@H](C)NC(=O)[C@@H](CCC(=O)O)NC(=O)CN1CCN(CC(=O)O)CCN(CC(=O)O)CCN(CC(=O)O)CC1 [[^111In]In-DOTA-MGS5[NHCH3], metal not drawn] | %ID/g | 0.13 |
| CCCC[C@@H](C(=O)N[C@@H](CC(=O)O)C(=O)N(C)[C@@H](Cc1cccc2ccccc12)C(N)=O)N(C)C(=O)[C@H](Cc1c[nH]c2ccccc12)NC(=O)CNC(=O)[C@H](Cc1ccc(O)cc1)NC(=O)[C@H](C)NC(=O)[C@@H](CCC(=O)O)NC(=O)CN1CCN(CC(=O)O)CCN(CC(=O)O)CCN(CC(=O)O)CC1 [[^111In]In-DOTA-[(N-Me)1Nal^8]MGS5, metal not drawn] | %ID/g | 0.32 |

Provide tissue uptake at 4 h value for the following compound: CCCC[C@@H](C(=O)N[C@@H](CC(=O)O)C(=O)N[C@@H](Cc1cccc2ccccc12)C(N)=O)N(C)C(=O)[C@H](Cc1c[nH]c2ccccc12)NC(=O)CNC(=O)[C@H](Cc1ccc(O)cc1)NC(=O)[C@H](C)NC(=O)[C@@H](CCCCN)NC(=O)CN1CCN(CC(=O)O)CCN(CC(=O)O)CCN(CC(=O)O)CC1 [[^111In]In-DOTA-[DLys^1]MGS5, metal not drawn] ({DOTA}-[dK]AYGW[NMeNle]D[1Nal]-NH2) 0.54
